System: CCRF-CEM leukemia
TEST METHOD NOTES: NCI tumour cell line growth inhibition, 48 h; in the data active = GI50 below about 0.43 µM; inactive = the rest
I would appreciate it if you answered using one of these outcomes: 1 (active), -1 (inactive)

INSERT INTO assay_data (compound, test_target, label_value) VALUES
  ('O=C(CN1CCN(CCCOc2c(-c3ccccc3)oc3ccccc3c2=O)CC1)Nc1ccc(Cl)cc1C(=O)c1ccccc1Cl', 'CCRF-CEM leukemia', -1),
  ('CC(C)(C)c1nn(-c2ccccc2)c2c1C(=O)CSC(c1ccccc1Cl)N2 (stereo not drawn)', 'CCRF-CEM leukemia', -1),
  ('COc1ccc(/C=C\c2cc(OC)c(OC)c(OC)c2)cc1OC(=O)c1cccc(Cn2cc(CCOC(=O)[C@H](N)Cc3cn(C)c4ccccc34)nn2)c1', 'CCRF-CEM leukemia', 1),
  ('O=C(Nc1cccc(Cl)c1)c1ccc(NC2=C(Cl)C(=O)N(Cc3ccccc3)C2=O)cc1', 'CCRF-CEM leukemia', -1);

[in] How did this test come out for Cc1cc2nc3c4cc(N)ccc4n(CCN(C)C)c3nc2cc1C ?
[out] -1

[in] Which outcome did this test record for the compound COc1ccccc1CCN=C1NC(=O)/C(=C/c2ccc3ncccc3c2)S1 ?
[out] -1

[in] Outcome? Nc1c(Br)cc(Br)c2c1[nH]c(=O)c1ccccc12
[out] -1

[in] What did the test return for CC(=O)[CH-]C(=O)c1ccccc1.CC(=O)[CH-]C(=O)c1ccccc1.CC(C)CCCC(C)[C@H]1CCC2[C@@H]3CC=C4C[C@@H]([O-])CC[C@]4(C)C3CC[C@@]21C.CC[O-].[Ti+4] (stereo partly drawn) ?
[out] -1
